tgt: PKBα (Homo sapiens, UniProt P31749)
Sequence (P31749 118-480 limits assumed): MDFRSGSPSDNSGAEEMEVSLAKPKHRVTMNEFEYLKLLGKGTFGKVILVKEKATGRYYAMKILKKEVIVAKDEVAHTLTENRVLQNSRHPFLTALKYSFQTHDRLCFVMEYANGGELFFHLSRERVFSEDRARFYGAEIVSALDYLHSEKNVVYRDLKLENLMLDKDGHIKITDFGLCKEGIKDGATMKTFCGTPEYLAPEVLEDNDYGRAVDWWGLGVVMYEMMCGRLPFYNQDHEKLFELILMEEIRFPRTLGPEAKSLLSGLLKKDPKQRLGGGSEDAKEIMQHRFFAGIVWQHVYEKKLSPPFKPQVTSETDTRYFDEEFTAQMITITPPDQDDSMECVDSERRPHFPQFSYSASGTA
experimental_details: PKB kinase assay (P33-labeled ATP, peptide substrate, filter plate)
condition_details: PKBα enzyme (full length or kinase domain with pleckstrin domain deleted)
pIC50: −log10 of the molar value.
So I've got a bunch of compounds here, and I need their pIC50 values.

In: Enter reported pIC50 observed with PKBα (Homo sapiens, UniProt P31749) for Cn1nc(N)c2ccc(-c3cnc(NC[C@@H](N)Cc4ccc(C(F)(F)F)cc4)s3)cc21 [Example 53]
Out: 5.00 to 6.00

In: And then N[C@H](CNc1ncc(-c2ccc3cnccc3c2)s1)Cc1c[nH]c2ccccc12 [Example 5] , what is it?
Out: 6.00 to 7.30

In: And then N[C@H](CNc1ncc(-c2ccc3c(c2)CC(=O)N3)s1)Cc1ccc(O)cc1 [Example 192] , what is it?
Out: 5.00 to 6.00

In: And then NC(CNc1ncc(-c2ccc3c(c2)CC(=O)N3)s1)Cc1ccc(OC(F)(F)F)cc1 (centres unmarked) [Example 188] , what is it?
Out: > 7.30

In: And then N[C@H](CNc1nc(-c2ccccc2F)c(-c2ccc3cnccc3c2)s1)Cc1ccc(F)cc1 [Example 106] , what is it?
Out: 6.00 to 7.30

In: And then COCOC(c1ccc(C(F)(F)F)cc1)C(N)CNc1ncc(-c2ccc3c(c2)CC(=O)N3)s1 (centres unmarked) [Example 244] , what is it?
Out: 5.00 to 6.00

In: And then CNc1cc2cc(-c3cnc(NC[C@@H](N)Cc4ccc(Cl)cc4)s3)ccc2cn1 [Example 139] , what is it?
Out: > 7.30

In: And then N[C@H](CNc1nc(Br)c(-c2nc3ccncc3s2)s1)Cc1ccc(C(F)(F)F)cc1 [Example 111] , what is it?
Out: 6.00 to 7.30

These measurements were taken from patent US8084479B2.
